TARGET_ENTITY: Cyclin-dependent kinase 5 (Homo sapiens);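 also: mean value of inhibition, with the enzyme tested as CDK5/p35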
EXPERIMENTAL_CONTEXT: at 1 µM
The following compounds are shown together with reported inhibition values.
Expressed in %, but write only the number.

- MOLECULE: "NS(=O)(=O)c1ccc(N/N=C2\\C(=O)Nc3ccc(-c4cnco4)cc32)cc1"
  READOUT_LABEL: "inhibition"
  REPORTED_RESULT: 71.8
- MOLECULE: "O=C(Nc1n[nH]c2cc(-c3cc(F)ccc3F)ccc12)C1CC1"
  READOUT_LABEL: "inhibition"
  REPORTED_RESULT: 5.38
- MOLECULE: "CN(c1ccc(NC(=O)Nc2c(Cl)cccc2Cl)cc1)c1ccnc(Nc2cccc(CS(C)(=O)=O)c2)n1"
  READOUT_LABEL: "inhibition"
  REPORTED_RESULT: 1.99
- MOLECULE: "COc1cc(Nc2ncc(-c3ccccc3)o2)cc(OC)c1OC"
  READOUT_LABEL: "inhibition"
  REPORTED_RESULT: 6.19

Switching to the query record.
Enter inhibition (test system Cyclin-dependent kinase 5 (Homo sapiens)) for `C[C@@H](Oc1cc(-n2cnc3ccc(OC4CCN(C)CC4)cc32)sc1C(N)=O)c1ccccc1Cl` -2.26
